Target: Epidermal growth factor receptor (Homo sapiens, UniProt P00533)
Sequence (P00533 whole entry): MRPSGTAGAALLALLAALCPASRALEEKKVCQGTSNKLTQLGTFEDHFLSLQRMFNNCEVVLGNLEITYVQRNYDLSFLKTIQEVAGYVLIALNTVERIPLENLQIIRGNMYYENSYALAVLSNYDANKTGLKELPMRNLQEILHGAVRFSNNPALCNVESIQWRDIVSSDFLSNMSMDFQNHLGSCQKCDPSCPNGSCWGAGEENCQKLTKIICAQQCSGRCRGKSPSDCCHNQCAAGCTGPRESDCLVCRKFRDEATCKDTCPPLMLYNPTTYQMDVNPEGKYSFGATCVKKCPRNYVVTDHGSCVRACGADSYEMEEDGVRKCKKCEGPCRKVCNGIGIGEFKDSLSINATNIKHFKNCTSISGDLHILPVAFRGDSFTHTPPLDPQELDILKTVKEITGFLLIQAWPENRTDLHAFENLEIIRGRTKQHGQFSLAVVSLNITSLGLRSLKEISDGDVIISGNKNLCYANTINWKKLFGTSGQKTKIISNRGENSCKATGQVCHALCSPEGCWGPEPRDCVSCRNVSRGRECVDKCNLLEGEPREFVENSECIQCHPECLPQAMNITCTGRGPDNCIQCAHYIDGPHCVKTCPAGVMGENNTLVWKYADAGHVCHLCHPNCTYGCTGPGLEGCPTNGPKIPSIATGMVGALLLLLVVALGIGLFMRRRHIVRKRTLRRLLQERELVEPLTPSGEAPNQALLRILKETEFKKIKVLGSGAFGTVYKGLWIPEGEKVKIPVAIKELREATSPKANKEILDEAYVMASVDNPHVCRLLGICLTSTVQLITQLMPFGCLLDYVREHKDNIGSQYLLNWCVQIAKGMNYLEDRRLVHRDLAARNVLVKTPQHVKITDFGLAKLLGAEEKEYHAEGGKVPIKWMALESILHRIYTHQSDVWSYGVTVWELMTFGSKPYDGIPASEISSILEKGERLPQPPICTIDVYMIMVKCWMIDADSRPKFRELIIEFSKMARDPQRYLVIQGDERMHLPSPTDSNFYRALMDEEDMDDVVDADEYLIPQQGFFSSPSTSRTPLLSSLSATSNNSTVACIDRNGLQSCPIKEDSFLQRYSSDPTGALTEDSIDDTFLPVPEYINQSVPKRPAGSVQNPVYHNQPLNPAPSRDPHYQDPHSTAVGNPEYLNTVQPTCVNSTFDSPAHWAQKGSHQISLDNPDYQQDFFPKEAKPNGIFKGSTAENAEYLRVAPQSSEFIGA
Test: Inhibition of EGF-stimulated tyrosine phosphorylation in A431 cells.
Listed next: entries and their corresponding IC50.
Entry rule: numbers only, all in nM.

[
  {
    "COMPOUND SMILES": "CC(C)(C)OC(=O)Nc1ccc(-c2[nH]nc3ncnc(Nc4cccc(Cl)c4)c23)cc1",
    "IC50 (nM)": 1500
  },
  {
    "COMPOUND SMILES": "Oc1cccc(-c2[nH]nc3ncnc(Nc4cccc(Cl)c4)c23)c1",
    "IC50 (nM)": 1500
  },
  {
    "COMPOUND SMILES": "COc1ccc(Nc2[nH]nc3ncnc(Nc4cccc(Cl)c4)c23)cc1",
    "IC50 (nM)": 1500
  }
]

Turning to the following compound.
// IC50 lookup, key: `Nc1ccc(-c2[nH]nc3ncnc(Nc4cccc(Cl)c4)c23)cc1`
800

---

Molecular target: Proto-oncogene tyrosine-protein kinase Src (Homo sapiens)
Sequence (P12931 2-536 limits assumed): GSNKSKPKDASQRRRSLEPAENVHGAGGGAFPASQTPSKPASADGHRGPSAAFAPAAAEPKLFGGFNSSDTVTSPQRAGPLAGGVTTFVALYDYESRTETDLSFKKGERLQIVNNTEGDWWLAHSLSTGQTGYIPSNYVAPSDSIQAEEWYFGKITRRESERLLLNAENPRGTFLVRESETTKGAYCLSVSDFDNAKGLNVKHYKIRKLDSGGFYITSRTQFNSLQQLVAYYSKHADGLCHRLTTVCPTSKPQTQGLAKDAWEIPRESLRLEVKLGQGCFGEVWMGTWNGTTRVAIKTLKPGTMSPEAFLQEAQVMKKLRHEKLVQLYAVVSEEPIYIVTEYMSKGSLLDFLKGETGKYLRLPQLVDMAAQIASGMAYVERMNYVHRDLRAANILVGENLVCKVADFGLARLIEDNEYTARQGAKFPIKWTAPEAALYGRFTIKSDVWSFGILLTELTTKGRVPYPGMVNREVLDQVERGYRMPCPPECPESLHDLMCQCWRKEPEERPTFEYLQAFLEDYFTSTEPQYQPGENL
Experiment: Inhibitory activity against c-Src tyrosine kinase
Property: pIC50; scope: individual molecules
// pIC50: -log10(molar conc.)

[
  {
    "COMPOUND SMILES": "Oc1cccc(Nc2[nH]nc3ncnc(Nc4cccc(Cl)c4)c23)c1",
    "pIC50": 6.66
  },
  {
    "COMPOUND SMILES": "Oc1ccc(-c2[nH]nc3ncnc(Nc4cccc(Cl)c4)c23)cc1",
    "pIC50": 5.07
  },
  {
    "COMPOUND SMILES": "Clc1cccc(Nc2[nH]nc3ncnc(Nc4ccccc4)c23)c1",
    "pIC50": 5.65
  }
]

pIC50 for `CC(C)(C)OC(=O)Nc1ccc(-c2[nH]nc3ncnc(Nc4cccc(Cl)c4)c23)cc1` ?
5.01

Which pIC50 is reported for this molecule? `COc1cc2ncnc(Nc3cccc(Br)c3)c2cc1OC`
5.85

Bench note: what pIC50 did `Nc1ccc(Nc2[nH]nc3ncnc(Nc4cccc(Cl)c4)c23)cc1` show?
5.62

---

Target: Tyrosine-protein kinase ABL1 (Homo sapiens)
Sequence (P00519 whole entry, looked up): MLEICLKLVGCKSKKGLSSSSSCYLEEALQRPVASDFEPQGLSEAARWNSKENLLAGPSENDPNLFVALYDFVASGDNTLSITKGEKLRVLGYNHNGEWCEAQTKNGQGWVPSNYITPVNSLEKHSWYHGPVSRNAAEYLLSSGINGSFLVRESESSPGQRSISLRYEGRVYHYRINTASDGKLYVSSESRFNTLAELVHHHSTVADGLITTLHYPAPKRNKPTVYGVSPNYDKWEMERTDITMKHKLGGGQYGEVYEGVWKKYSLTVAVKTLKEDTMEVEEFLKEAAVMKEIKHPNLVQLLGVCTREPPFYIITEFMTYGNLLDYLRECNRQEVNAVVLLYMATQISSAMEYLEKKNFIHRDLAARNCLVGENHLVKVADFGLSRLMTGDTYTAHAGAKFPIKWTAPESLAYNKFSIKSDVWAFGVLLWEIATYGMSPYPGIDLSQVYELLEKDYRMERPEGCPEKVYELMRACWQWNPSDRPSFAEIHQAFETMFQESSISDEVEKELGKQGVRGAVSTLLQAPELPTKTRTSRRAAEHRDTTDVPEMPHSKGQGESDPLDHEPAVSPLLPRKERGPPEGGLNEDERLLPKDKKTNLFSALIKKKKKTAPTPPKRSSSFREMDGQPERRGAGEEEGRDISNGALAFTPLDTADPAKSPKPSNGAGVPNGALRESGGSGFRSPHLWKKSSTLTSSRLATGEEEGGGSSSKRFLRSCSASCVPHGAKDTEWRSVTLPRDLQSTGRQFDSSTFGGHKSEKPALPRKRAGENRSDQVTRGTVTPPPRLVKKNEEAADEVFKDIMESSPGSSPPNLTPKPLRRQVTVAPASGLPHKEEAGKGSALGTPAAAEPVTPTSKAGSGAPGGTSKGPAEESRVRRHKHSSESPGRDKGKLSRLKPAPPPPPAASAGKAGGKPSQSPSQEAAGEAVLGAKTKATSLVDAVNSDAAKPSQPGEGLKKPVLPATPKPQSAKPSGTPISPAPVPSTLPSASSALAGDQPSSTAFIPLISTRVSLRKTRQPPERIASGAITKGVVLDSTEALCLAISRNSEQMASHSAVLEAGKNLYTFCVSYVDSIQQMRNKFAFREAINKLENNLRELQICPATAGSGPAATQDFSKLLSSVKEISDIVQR
pIC50: −log10 of the molar value.
ATTRIBUTE MEASURED: pIC50

Worked examples, 2 molecules total:
[
  {
    "COMPOUND SMILES": "COc1ccc(CNc2[nH]nc3ncnc(Nc4cccc(Cl)c4)c23)cc1",
    "ATTRIBUTE MEASURED": "pIC50",
    "OBS VALUE": "< 5.00"
  },
  {
    "COMPOUND SMILES": "Clc1cccc(Nc2[nH]nc3ncnc(NCc4ccccc4)c23)c1",
    "ATTRIBUTE MEASURED": "pIC50",
    "OBS VALUE": "< 5.00"
  }
]

// switching to the query molecule
So what's the measured pIC50 for this one? `CN(C)c1ccc(Nc2[nH]nc3ncnc(Nc4cccc(Cl)c4)c23)cc1`
< 5.00
